Give measured IC50 for each item. Keep answers brief.
TARGET SYSTEM: human FXa (Homo sapiens, UniProt P00742)
Construct: purchased Cosmobio-ERL HFXa-1011
Sequence (P00742 235-488 limits assumed): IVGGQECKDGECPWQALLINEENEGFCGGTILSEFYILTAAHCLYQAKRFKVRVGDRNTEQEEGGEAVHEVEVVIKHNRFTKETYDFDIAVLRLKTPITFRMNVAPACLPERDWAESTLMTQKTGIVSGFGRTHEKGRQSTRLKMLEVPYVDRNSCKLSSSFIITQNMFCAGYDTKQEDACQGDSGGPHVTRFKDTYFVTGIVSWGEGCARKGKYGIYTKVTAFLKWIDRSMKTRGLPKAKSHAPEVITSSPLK
Sequence (P00742 41-179 partner limits assumed): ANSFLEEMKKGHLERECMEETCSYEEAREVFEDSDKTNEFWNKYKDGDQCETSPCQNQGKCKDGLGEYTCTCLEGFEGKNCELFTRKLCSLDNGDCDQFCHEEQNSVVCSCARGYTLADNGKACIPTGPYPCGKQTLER
RUN DESCRIPTION: Measurement of FXa inhibitory action (IC50)
Type: biochemical
CONDITION LABEL: 0.05 U/ml human FXa, substrate S2222, absorbance at 405 nm, room temperature; read-out: Concentration (nM) of the sample at which 50% of Fxa activity is inhibited
Where a name gives a salt, the structure may show the parent alone.

Known IC50 results, listed for orientation:
Look up IC50 for this compound: `O=C(c1cnc(-c2ccncc2)nc1)N1CCN(S(=O)(=O)c2cc3cc(Cl)ccc3[nH]2)CC1` 19 nM

Look up IC50 for this compound: `O=C(c1ccc(-c2ccncc2)cc1)N1CCN(S(=O)(=O)c2cc3cc(Cl)ccc3o2)CC1` 1000 nM

Look up IC50 for this compound: CCC1CN(S(=O)(=O)c2cc3cc(Cl)ccc3[nH]2)CCN1C(=O)c1ncc(-c2cccc[n+]2[O-])cn1 (stereo not shown) 7.6 nM

Batch request: IC50 for each of the following compounds.
1. O=C(c1cnc(-c2ccncc2)cn1)N1CCN(S(=O)(=O)c2cc3cc(Cl)ccc3[nH]2)CC1
2. NC(=O)C[C@@H]1CN(S(=O)(=O)c2ccc3cc(Cl)ccc3c2)C[C@H](CC(N)=O)N1C(=O)c1ccc(-c2ccncc2)cc1
3. O=C(c1ccc(-c2ccncc2)cc1)N1CCN(S(=O)(=O)c2cc3cc(Cl)ccc3s2)CC1 [Example A-96, hydrochloride]
4. C#Cc1ccc2cc(S(=O)(=O)N3CCN(C(=O)c4ncc(-c5ccncc5)cn4)CC3)sc2c1

["5 nM", "10 nM", "450 nM", "15 nM"]

* * *

TARGET SYSTEM: human thrombin (Homo sapiens)
Construct: carries out limited proteolysis of prothrombin, thereby forming thrombin; purchased Sigma Chemical
RUN DESCRIPTION: Measurement of thrombin inhibitory action (IC50)
Format: biochemical
CONDITION LABEL: same test as Tables 7-8; read-out: thrombin 50% inhibitory concentration
Where a name gives a salt, the structure may show the parent alone.
ASSAY READOUT: pIC50
Answers are plain numbers, as −log10 of the molar value.

Look up pIC50 for this compound: CN1CCc2nc(C(=O)N3CCN(S(=O)(=O)c4cc5cc(Cl)ccc5[nH]4)CC3)sc2C1 [Example B-54, hydrochloride] 5.98

* * *

TARGET SYSTEM: human FXa (Homo sapiens)
Construct: purchased Cosmobio-ERL HFXa-1011
RUN DESCRIPTION: Measurement of FXa inhibitory action (IC50)
Type: biochemical
CONDITION LABEL: 0.05 U/ml human FXa, substrate S2222, absorbance at 405 nm, room temperature; read-out: Concentration (nM) of the sample at which 50% of Fxa activity is inhibited
Where a name gives a salt, the structure may show the parent alone.
ASSAY READOUT: IC50 (nM)
Numbers only, in nM.

Look up IC50 for this compound: O=C(CC1CN(S(=O)(=O)c2cc3cc(Cl)ccc3[nH]2)CCN1C(=O)c1ncc(-c2cc[n+]([O-])cc2)s1)N1CCCC1 (stereo not shown) 0.7

Look up IC50 for this compound: NCc1cc(-c2ccc(C(=O)N3CCN(S(=O)(=O)c4ccc5cc(Cl)ccc5c4)CC3)cc2)ccn1 [Example A-155, hydrochloride] 28

Look up IC50 for this compound: `O=C(c1ccc(-c2cc[n+]([O-])cc2)cc1)N1CCN(S(=O)(=O)c2cc3ccc(Cl)cc3s2)CC1` 8.6

Batch request: IC50 for each of the following compounds.
1. O=C(c1ccc(-c2cccc[n+]2[O-])cc1)N1CCN(S(=O)(=O)c2cc3ccc(Cl)cc3s2)CC1
2. O=C(c1ccc(-c2ccccn2)cc1)N1CCN(S(=O)(=O)c2ccc3cc(Cl)ccc3c2)CC1 [Example A-17, hydrochloride]
3. O=C(c1ncc(-c2ccncc2)cn1)N1CCN(S(=O)(=O)c2ccc3cc(Cl)ccc3c2)CC1

10.5
180
23

Look up IC50 for this compound: `Cn1c(S(=O)(=O)N2CCN(C(=O)c3ccc(-c4ccncc4)cc3)CC2)cc2cc(Cl)ccc21` 7000

* * *

TARGET SYSTEM: human FXa (Homo sapiens)
Construct: purchased Cosmobio-ERL HFXa-1011
RUN DESCRIPTION: Measurement of FXa inhibitory action (IC50)
Type: biochemical
CONDITION LABEL: 0.05 U/ml human FXa, substrate S2222, absorbance at 405 nm, room temperature; read-out: Concentration (nM) of the sample at which 50% of Fxa activity is inhibited
Give measured log10 of IC50 for each item. Keep answers brief.
Parameter value (number): base-10 log of IC50 in nM.

Batch request: log10 of IC50 for each of the following molecules.
1. O=C(c1cnc(-c2cc[n+]([O-])cc2)nc1)N1CCN(S(=O)(=O)c2cc3cc(Cl)ccc3[nH]2)CC1 [Example A-135]
2. O=C(c1ccc(-c2cccc[n+]2[O-])cc1)N1CCN(S(=O)(=O)c2cc3cc(Cl)ccc3[nH]2)CC1 [Example A-109]
3. Cc1c(S(=O)(=O)N2CCN(C(=O)c3ccc(-c4ccncc4)cc3)CC2)sc2ccc(Cl)cc12 [Example A-83]
4. Cc1cc(-c2cnc(C(=O)N3CCN(S(=O)(=O)c4cc5cc(Cl)ccc5[nH]4)CC3)s2)cc[n+]1[O-] [Example A-229]
5. O=C(c1cnc(-c2ccncc2)cn1)N1CCN(S(=O)(=O)c2ccc3cc(Cl)ccc3c2)CC1 [Example A-137]

1. 1.15
2. 0.84
3. 3.45
4. 0.20
5. 1.78

Batch request: log10 of IC50 for each of the following molecules.
1. O=C(c1ncc(-c2cccc[n+]2[O-])cn1)N1CCN(S(=O)(=O)c2cc3ccc(Cl)cc3s2)CC1 [Example A-185]
2. C#Cc1ccc2[nH]c(S(=O)(=O)N3CCN(C(=O)c4ccc(-c5ccncc5)cc4)CC3)cc2c1 [Example A-103]
3. NC(=O)CC1CN(S(=O)(=O)c2cc3cc(Cl)ccc3[nH]2)CCN1C(=O)c1ccc(-c2ccncc2)cc1 (stereo not shown) [Example A-130]
4. O=C(c1ncc(-c2cc[n+]([O-])cc2)cn1)N1CCN(S(=O)(=O)c2cc3cc(Cl)ccc3[nH]2)CC1 [Example A-134]

1: 0.80; 2: 1.43; 3: 0.56; 4: 0.66

* * *

TARGET SYSTEM: human thrombin (Homo sapiens)
Construct: carries out limited proteolysis of prothrombin, thereby forming thrombin; purchased Sigma Chemical
RUN DESCRIPTION: Measurement of thrombin inhibitory action (IC50)
Assay type: biochemical
CONDITION LABEL: 4 U/ml human thrombin, substrate S2266, absorbance at 405 nm, room temperature; read-out: Concentration (nM) of the sample at which 50% of thrombin activity is inhibited
ASSAY READOUT: IC50 (nM)
Give bare numbers, in nM.

Known IC50 results, listed for orientation:
Look up IC50 for this molecule: `O=C(c1ncc(-c2cc[n+]([O-])cc2)cn1)N1CCN(S(=O)(=O)c2cc3cc(Cl)ccc3[nH]2)CC1` 10200

Look up IC50 for this molecule: `O=C(c1cnc(-c2ccncc2)cn1)N1CCN(S(=O)(=O)c2cc3cc(Cl)ccc3[nH]2)CC1` 5900

Look up IC50 for this molecule: `O=C(c1ncc(-c2ccncc2)cn1)N1CCN(S(=O)(=O)c2ccc3cc(Cl)ccc3c2)CC1` 16000

Look up IC50 for this molecule: `O=C(c1ccc(-c2cccc[n+]2[O-])cc1)N1CCN(S(=O)(=O)c2cc3ccc(Cl)cc3s2)CC1` 4100

Look up IC50 for this molecule: `O=C(c1ncc(-c2cc[n+]([O-])cc2)cn1)N1CCN(S(=O)(=O)c2cc3ccc(Cl)cc3s2)CC1` 7700

Batch request: IC50 for each of the following molecules.
1. C#Cc1ccc2[nH]c(S(=O)(=O)N3CCN(C(=O)c4ccc(-c5ccncc5)cc4)CC3)cc2c1
2. O=C(c1ccc(-c2cccc[n+]2[O-])cc1)N1CCN(S(=O)(=O)c2cc3cc(Cl)ccc3[nH]2)CC1
3. O=C(c1ncc(-c2ccncc2)cn1)N1CCN(S(=O)(=O)c2cc3cc(Cl)ccc3[nH]2)CC1
4. O=C(c1cnc(-c2ccncc2)cn1)N1CCN(S(=O)(=O)c2ccc3cc(Cl)ccc3c2)CC1
5. O=C(c1cnc(-c2cc[n+]([O-])cc2)cn1)N1CCN(S(=O)(=O)c2cc3cc(Cl)ccc3[nH]2)CC1

[2220, 1550, 19000, 4100, 1370]

* * *

Give measured IC50 for each item. Keep answers brief.
TARGET SYSTEM: human FXa (Homo sapiens)
Construct: purchased Cosmobio-ERL HFXa-1011
RUN DESCRIPTION: Measurement of FXa inhibitory action (IC50)
Format: biochemical
CONDITION LABEL: 0.05 U/ml human FXa, substrate S2222, absorbance at 405 nm, room temperature; read-out: Concentration (nM) of the sample at which 50% of Fxa activity is inhibited
Structures can show the parent of a compound that is named as a salt.

Known IC50 results, listed for orientation:
Missing value: IC50, human FXa (Homo sapiens), entry O=C(c1ccc(-c2ccccn2)cc1)N1CCN(S(=O)(=O)c2cc3ccc(Cl)cc3s2)CC1 [Example A-98, hydrochloride] . Fill in? 125 nM

Missing value: IC50, human FXa (Homo sapiens), entry `O=C(c1ccc(-c2cc[n+]([O-])cc2)cc1)N1CCN(S(=O)(=O)c2cc3cc(Cl)ccc3[nH]2)CC1` . Fill in? 4.7 nM

Missing value: IC50, human FXa (Homo sapiens), entry O=C(c1ccc(-c2ccncc2)cc1)N1CCN(S(=O)(=O)c2ccc3cc(Cl)ccc3c2)CC1 [Example A-1, hydrochloride] . Fill in? 123 nM

Moving on to another molecule below.
Missing value: IC50, human FXa (Homo sapiens), entry `O=C(c1cnc(-c2cc[n+]([O-])cc2)cn1)N1CCN(S(=O)(=O)c2cc3cc(Cl)ccc3[nH]2)CC1` . Fill in? 6.8 nM
